I'd appreciate it if you could supply MED values for the items below.
- Test system: Cavia porcellus
- Protocol: Cardiovascular toxicity in iv dosed Hartley guinea pig QTc prolongation after 30 mins by ECG
- Type: organism-based
- Run Conditions: in vivo, 0.5 h
Give bare numbers, in mg/kg.

For each of the items listed, what is its MED?
1. Cc1ccc(CCCCN2CCC(C(O)(c3ccccc3)c3ccccc3)CC2)cc1
2. CC(C)(C)c1ccc(C(O)CCCN2CCC(C(O)(c3ccccc3)c3ccccc3)CC2)cc1 (racemic)

0.1
0.03

----------
- Test system: Cavia porcellus
- Protocol: Cardiovascular toxicity in Hartley guinea pig assessed as QTc prolongation at 50 mg/kg, iv after 30 mins by ECG
- Format: organism-based
- Design: dose 50 mg/kg, route intravenous
- Run Conditions: in vivo, 0.5 h
Property Measured: MED

Which measured MED value corresponds to O=C(O)c1ccc(CCCCN2CCC(C(O)(c3ccccc3)c3ccccc3)CC2)cc1 ?
> 50 mg/kg

----------
- System: hERG (KCNH2) (Homo sapiens, UniProt Q12809)
- Sequence (Q12809 whole entry): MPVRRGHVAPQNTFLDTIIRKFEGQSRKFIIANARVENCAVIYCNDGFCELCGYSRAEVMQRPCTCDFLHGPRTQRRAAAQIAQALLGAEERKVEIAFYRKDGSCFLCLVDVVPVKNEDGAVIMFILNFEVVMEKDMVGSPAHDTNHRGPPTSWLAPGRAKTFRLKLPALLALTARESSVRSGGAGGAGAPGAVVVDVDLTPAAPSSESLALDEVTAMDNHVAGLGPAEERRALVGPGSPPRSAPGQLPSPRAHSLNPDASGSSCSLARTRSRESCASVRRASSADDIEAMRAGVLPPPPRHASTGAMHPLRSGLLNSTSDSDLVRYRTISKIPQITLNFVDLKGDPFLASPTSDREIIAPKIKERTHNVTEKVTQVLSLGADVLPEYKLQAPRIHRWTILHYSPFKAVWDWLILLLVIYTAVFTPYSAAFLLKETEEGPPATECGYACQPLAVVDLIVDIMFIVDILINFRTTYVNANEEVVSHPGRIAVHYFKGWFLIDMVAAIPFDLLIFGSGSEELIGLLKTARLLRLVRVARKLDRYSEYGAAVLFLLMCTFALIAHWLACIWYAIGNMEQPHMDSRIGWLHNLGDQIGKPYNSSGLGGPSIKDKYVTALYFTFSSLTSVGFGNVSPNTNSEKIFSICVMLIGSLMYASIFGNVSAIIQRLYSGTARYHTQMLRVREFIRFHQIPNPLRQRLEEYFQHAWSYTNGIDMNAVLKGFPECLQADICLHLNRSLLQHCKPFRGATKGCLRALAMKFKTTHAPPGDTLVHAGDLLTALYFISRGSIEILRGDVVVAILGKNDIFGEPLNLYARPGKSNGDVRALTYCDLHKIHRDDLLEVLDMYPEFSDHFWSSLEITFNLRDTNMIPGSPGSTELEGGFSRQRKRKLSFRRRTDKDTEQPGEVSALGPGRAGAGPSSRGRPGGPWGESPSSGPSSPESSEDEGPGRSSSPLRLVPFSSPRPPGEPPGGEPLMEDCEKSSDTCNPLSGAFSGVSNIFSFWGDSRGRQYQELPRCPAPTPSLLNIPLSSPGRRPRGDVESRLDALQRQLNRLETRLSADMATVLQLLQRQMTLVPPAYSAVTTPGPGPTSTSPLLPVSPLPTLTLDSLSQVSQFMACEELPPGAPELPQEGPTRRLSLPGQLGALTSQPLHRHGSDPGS
- Protocol: Inhibition of human ERG in L929 cells at 10 uM by whole cell patch-clamp assay
- Run Conditions: human, L929 cells expressing human ERG
So basically: inhibition at 10 µM at 70% or higher? That is t. Lower than 70%? That is f.

Could you please find out whether Cc1ccc(CN2CCC(C(O)(c3ccccc3)c3ccccc3)CC2)cc1 has inhibition at 10 µM that meets 70% or exceeds it?
t

Could you please find out whether Cc1ccc(CCCCC2CCC(C(O)(c3ccccc3)c3ccccc3)CC2)cc1 (centres undefined) has inhibition at 10 µM that meets 70% or exceeds it?
f

Could you please find out whether Cc1ccc(CCCC(=O)N2CCC(C(O)(c3ccccc3)c3ccccc3)CC2)cc1 has inhibition at 10 µM that meets 70% or exceeds it?
f

Could you please find out whether Cc1ccc(CCCCN2CCC(CO)CC2)cc1 has inhibition at 10 µM that meets 70% or exceeds it?
f

Could you please find out whether Cc1ccc(CCN2CCC(C(O)(c3ccccc3)c3ccccc3)CC2)cc1 has inhibition at 10 µM that meets 70% or exceeds it?
t

Could you please find out whether Cc1ccc(CCCCN2CCC(C(O)c3ccccc3)CC2)cc1 (centres undefined) has inhibition at 10 µM that meets 70% or exceeds it?
t

Could you please find out whether COC(=O)c1ccc(CCCCN2CCC(C(O)(c3ccccc3)c3ccccc3)CC2)cc1 has inhibition at 10 µM that meets 70% or exceeds it?
t

Now consider the entry below.
Could you please find out whether CC1CCC(CCCCN2CCC(C(O)(c3ccccc3)c3ccccc3)CC2)CC1 (centres undefined) has inhibition at 10 µM that meets 70% or exceeds it?
t

----------
- System: hERG (KCNH2) (Homo sapiens, UniProt Q12809)
- Protocol: Inhibition of human ERG in L929 cells at 10 uM by whole cell patch-clamp assay
- Run Conditions: human, l929
Property Measured: inhibition at 10 µM (%)
One number for each entry, in %.

Give inhibition at 10 µM (hERG (KCNH2) (Homo sapiens, UniProt Q12809)) of the following molecule: O=C(O)c1ccc(CCCCN2CCC(C(O)(c3ccccc3)c3ccccc3)CC2)cc1
56

----------
- System: Voltage-gated inwardly rectifying potassium channel KCNH2 (Homo sapiens, UniProt Q12809)
- Protocol: Inhibition of human ERG in L929 cells by whole cell patch-clamp assay
Property Measured: pIC50
One number for each entry, as −log10 of the molar value.

Which measured pIC50 value corresponds to O=C(O)c1ccc(CCCCN2CCC(C(O)(c3ccccc3)c3ccccc3)CC2)cc1 ?
4.96
